# Experimental target: T1, HLA-A03.01 (human)
# T1 construct: Purified class I MHC
# Test summary: competition with radiolabeled reference peptide, purified MHC I
pIC50: −log10 of the molar value.
Given measured pIC50, output true if it is greater than or equal to 7 and false if not.

- Binder: "ITTVKATETK (also called SEC63 (+1))"
  Group label: "false"
- Binder: "KSKKKETFKK (also called SEC63 (+1))"
  Group label: "true"
- Binder: "AMTTSSSQKN (also called TGFBR2(-1))"
  Group label: "false"
- Binder: "RVNTAWKTKK (also called TFAM(+1))"
  Group label: "true"
- Binder: "KLMLLRLNL (also called SEC31A(-1))"
  Group label: "false"
- Binder: "KLMLLRLNLR (also called SEC31A(-1))"
  Group label: "true"
- Binder: "LFVMSDTTYK (also called TTK(-1))"
  Group label: "false"
